- measurement-description: in vivo
- assay-context: Sprague-Dawley, rat, iv, 1 mg/kg
parameter-measured: clearance (mL/min/kg)

compound-structure-string	parameter-measured	reading-unit	measured-value
O=C(O)c1ccc(N2CC3(CCN(Cc4cc(C(F)(F)F)ccc4C4CC4)CC3)OC2=O)cc1	clearance	mL/min/kg	3.4

---

- measurement-description: Metabolic stability in Beagle dog liver microsomes at 1 uM after 30 mins
- Format: ADME, Canis lupus familiaris, microsome
- assay-context: read-out: Stability

compound-structure-string	remaining at 0.5 h, 1 µM
CCOc1cc(CN2CCC3(CC2)CC(=O)N(c2ccc(C(=O)O)cc2)C3)cc(OCC)c1-c1ccc(F)cc1	> 80%
